Reference for the values: ChEMBL document CHEMBL1255545

Target: Adenosine receptor A1 (Homo sapiens)
Sequence (whole entry): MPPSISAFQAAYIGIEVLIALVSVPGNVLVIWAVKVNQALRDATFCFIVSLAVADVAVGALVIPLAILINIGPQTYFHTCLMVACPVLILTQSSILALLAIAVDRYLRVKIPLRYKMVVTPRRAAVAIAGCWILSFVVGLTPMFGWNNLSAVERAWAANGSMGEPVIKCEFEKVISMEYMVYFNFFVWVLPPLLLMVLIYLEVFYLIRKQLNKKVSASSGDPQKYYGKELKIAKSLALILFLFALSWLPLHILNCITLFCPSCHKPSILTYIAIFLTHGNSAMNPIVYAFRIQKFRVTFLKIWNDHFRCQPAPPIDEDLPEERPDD
Experiment: Displacement of [3H]CCPA from human adenosine A1 receptor expressed in CHO cells at 10 uM
Format: cell-based
PROPERTY: inhibition (%)
Numbers only here, please. The scale is %.

Could you share which inhibition value was measured for C=CCOc1ccc(CCCn2ncc3c2nc(N)n2nc(-c4ccco4)nc32)cc1 ? 32.8

Could you share which inhibition value was measured for Nc1nc2c(cnn2CCCc2ccc(OCCO)cc2)c2nc(-c3ccco3)nn12 ? 47.9

Could you share which inhibition value was measured for CC(C)Oc1ccc(CCCn2ncc3c2nc(N)n2nc(-c4ccco4)nc32)cc1 ? 35

Could you share which inhibition value was measured for CCCOc1ccc(CCCn2ncc3c2nc(N)n2nc(-c4ccco4)nc32)cc1 ? 17.9

Could you share which inhibition value was measured for Nc1nc2c(cnn2CCCc2ccc(O)cc2)c2nc(-c3ccco3)nn12 ? 44.3

====

target: UniProt P0DMS8; assay: Displacement of [125I]I-AB-MECA from human adenosine A3 receptor expressed in CHO cells at 10 uM; type: cell-based
Sequence (P0DMS8 whole entry): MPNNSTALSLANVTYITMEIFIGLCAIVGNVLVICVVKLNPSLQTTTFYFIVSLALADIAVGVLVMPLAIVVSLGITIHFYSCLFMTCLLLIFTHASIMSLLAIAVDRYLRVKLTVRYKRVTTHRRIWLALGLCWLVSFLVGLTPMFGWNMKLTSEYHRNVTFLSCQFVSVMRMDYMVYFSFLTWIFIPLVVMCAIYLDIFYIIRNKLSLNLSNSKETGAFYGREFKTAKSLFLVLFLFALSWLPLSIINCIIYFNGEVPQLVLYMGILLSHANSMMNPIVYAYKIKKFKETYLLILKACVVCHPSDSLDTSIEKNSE
PROPERTY: inhibition (%)
Numbers only here, please. The scale is %.

Param readout = inhibition; param system = UniProt P0DMS8; param query = Nc1nc2c(cnn2CCCc2ccc(OCCF)cc2)c2nc(-c3ccco3)nn12 ; response: value 59.6

Param readout = inhibition; param system = UniProt P0DMS8; param query = Nc1nc2c(cnn2CCCc2ccc(O/C=C/c3ccccc3)cc2)c2nc(-c3ccco3)nn12 ; response: value 17.8

Param readout = inhibition; param system = UniProt P0DMS8; param query = Nc1nc2c(cnn2CCCc2ccc(O)cc2)c2nc(-c3ccco3)nn12 ; response: value 34.2

Param readout = inhibition; param system = UniProt P0DMS8; param query = C=CCOc1ccc(CCCn2ncc3c2nc(N)n2nc(-c4ccco4)nc32)cc1 ; response: value 62.5

Param readout = inhibition; param system = UniProt P0DMS8; param query = CC(C)Oc1ccc(CCCn2ncc3c2nc(N)n2nc(-c4ccco4)nc32)cc1 ; response: value 72.8

Param readout = inhibition; param system = UniProt P0DMS8; param query = Nc1nc2c(cnn2CCCc2ccc(OCCO)cc2)c2nc(-c3ccco3)nn12 ; response: value 57.8

Param readout = inhibition; param system = UniProt P0DMS8; param query = CS(=O)(=O)OCCOc1ccc(CCCn2ncc3c2nc(N)n2nc(-c4ccco4)nc32)cc1 ; response: value 62.4

Param readout = inhibition; param system = UniProt P0DMS8; param query = CCCOc1ccc(CCCn2ncc3c2nc(N)n2nc(-c4ccco4)nc32)cc1 ; response: value 36.5

Param readout = inhibition; param system = UniProt P0DMS8; param query = COc1ccc(CCCn2ncc3c2nc(N)n2nc(-c4ccco4)nc32)cc1 ; response: value 67.4

Param readout = inhibition; param system = UniProt P0DMS8; param query = Nc1nc2c(cnn2CCCc2ccc(OCCc3ccccc3)cc2)c2nc(-c3ccco3)nn12 ; response: value 18.2

Param readout = inhibition; param system = UniProt P0DMS8; param query = CCC(C)Oc1ccc(CCCn2ncc3c2nc(N)n2nc(-c4ccco4)nc32)cc1 (configuration not stated) ; response: value 41.9

Param readout = inhibition; param system = UniProt P0DMS8; param query = C=CCCOc1ccc(CCCn2ncc3c2nc(N)n2nc(-c4ccco4)nc32)cc1 ; response: value 44.8
